Test system: human lung cancer strain NCI-H441
Type: cell-based
pIC50: −log10 of the molar value. *1 amine or outer side, *2 acyl side, *3 side chain or, on linkers, in order; H or OH if unused. Where a SMILES comes first, the peptide text is derived from it. Bridges are numbered along the chain shown (N, C = ends). [ ]: non-standard residue; d: D form. The star is where a group is joined. hPhe(3-Cl-4-CF3) = N[C@@H](CCc1ccc(C(F)(F)F)c(Cl)c1)C(=O)O; NPrPhe(4-CF3) = CCCN[C@@H](Cc1ccc(C(F)(F)F)cc1)C(=O)O; X32 = Cc1ccc(C[C@@H](C(=O)[*:2])N(CC2CCCC2)[*:1])cc1; hPhe(3,4-Cl2) = N[C@@H](CCc1ccc(Cl)c(Cl)c1)C(=O)O; NMeGly(cPent) = CN[C@H](C(=O)O)C1CCCC1; NMeD = CN[C@@H](CC(=O)O)C(=O)O; NMeL = CN[C@@H](CC(C)C)C(=O)O; Morpholide = C1CN(*)CCO1; NMeA = CN[C@@H](C)C(=O)O; Ac5c = NC1(C(=O)O)CCCC1; Aze = O=C(O)[C@@H]1CCN1; NPrGly = CCCNCC(=O)O; Sar = CNCC(=O)O

molecule	assayed_target	pIC50
CCCN1CC(=O)NC2(CCCC2)C(=O)N(C)[C@@H](C2CCCC2)C(=O)N(C)[C@H](C(=O)N2CCOCC2)CC(=O)N(C)[C@@H](CC(C)C)C(=O)N[C@@H]([C@@H](C)CC)C(=O)N2CC[C@H]2C(=O)N(C)CC(=O)N(CCC)[C@@H](Cc2ccc(C(F)(F)F)cc2)C(=O)N(C)CC(=O)N[C@@H](CCc2ccc(C(F)(F)F)c(Cl)c2)C1=O [PP0315] ([NMeL]I[Aze][Sar][NPrPhe(4-CF3)][Sar][hPhe(3-Cl-4-CF3)][NPrGly][Ac5c][NMeGly(cPent)][NMeD]-Morpholide; lactam N-11)	human lung cancer strain NCI-H441	6.83
CCO[C@@H]1C[C@H]2C(=O)NC3(CCC3)C(=O)N(C)[C@@H](C3CCCC3)C(=O)N(C)[C@H](C(=O)N(C)C)CC(=O)N(C)[C@@H](CC)C(=O)N[C@@H]([C@@H](C)CC)C(=O)N(C)CC(=O)N(C)[C@H]3C/C=C\CCN(C3=O)[C@@H](Cc3ccc(C(F)(F)F)cc3)C(=O)N(C)CC(=O)N[C@@H](CCc3ccc(C(F)(F)F)c(Cl)c3)C(=O)N2C1	human lung cancer strain NCI-H441	7.64
CC[C@H](C)[C@@H]1NC(=O)[C@H](CC(C)C)N(C)C(=O)C[C@@H](C(=O)N2CCOCC2)N(C)C(=O)[C@H](C2CCCC2)N(C)C(=O)C2(CCCC2)NC(=O)[C@@H]2CCCN2C(=O)[C@H](CCc2ccc(C(F)(F)F)c(Cl)c2)NC(=O)CN(C)C(=O)[C@H](Cc2ccc(C)cc2)N(CC2CCCC2)C(=O)CN(C)C(=O)CN(C)C1=O [PP0096] ([NMeL]I[Sar][Sar][X32][Sar][hPhe(3-Cl-4-CF3)]P[Ac5c][NMeGly(cPent)][NMeD]-Morpholide; lactam N-11)	human lung cancer strain NCI-H441	7.16
CCO[C@@H]1C[C@H]2C(=O)NC3(CC(C)(C)C3)C(=O)N(C)[C@@H](C(CC)CC)C(=O)N(C)[C@H](C(=O)N3CCCC3)CC(=O)N(C)[C@@H](C)C(=O)N[C@@H]([C@@H](C)CC)C(=O)N(C)CC(=O)N(C)[C@H]3C/C=C\CCN(C3=O)[C@@H](Cc3ccc(C)cc3)C(=O)N(C)CC(=O)N[C@@H](CCc3ccc(C(F)(F)F)c(OC)c3)C(=O)N2C1	human lung cancer strain NCI-H441	7.21
CCCN1C(=O)[C@@H]2CCN2C(=O)[C@H](C)N(C)C(=O)[C@H]([C@@H](C)CC)NC(=O)[C@H](CC(C)C)N(C)C(=O)C[C@@H](C(=O)N2CCOCC2)N(C)C(=O)[C@H](C2CCCC2)N(C)C(=O)C2(CCCC2)NC(=O)[C@@H]2CCCN2C(=O)[C@H](CCc2ccc(Cl)c(Cl)c2)NC(=O)CN(C)C(=O)[C@@H]1Cc1ccc(C(F)(F)F)cc1 [PP0227] ([NMeL]I[NMeA][Aze][NPrPhe(4-CF3)][Sar][hPhe(3,4-Cl2)]P[Ac5c][NMeGly(cPent)][NMeD]-Morpholide; lactam N-11)	human lung cancer strain NCI-H441	8.39

----------
# maps each entry to its pKd
assayed_target: GDP-bound KRAS wild-type protein (Homo sapiens, UniProt P01116)
Sequence (P01116 1-188 isoform P01116-2): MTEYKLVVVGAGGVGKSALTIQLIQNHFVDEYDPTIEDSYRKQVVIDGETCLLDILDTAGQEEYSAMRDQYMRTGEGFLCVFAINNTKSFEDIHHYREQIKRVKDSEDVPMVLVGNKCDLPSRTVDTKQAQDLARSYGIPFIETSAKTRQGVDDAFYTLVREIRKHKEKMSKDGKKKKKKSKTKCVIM
experiment_notes: Binding to KRAS by surface plasmon resonance (SPR), dissociation constant KD
settings: Single Cycle Kinetics, 1:1 binding model
pKd: −log10 of the molar value.

molecule	assayed_target	pKd
CCC[C@@H]1C[C@H]2C(=O)NC3(CCCC3)C(=O)N(C)[C@@H](C3CCCC3)C(=O)N(C)[C@H](C(=O)N(C)C)CC(=O)N(C)[C@@H](CC)C(=O)N[C@@H]([C@@H](C)CC)C(=O)N(C)CC(=O)N(C)[C@H]3C/C=C\CCN(C3=O)[C@@H](Cc3ccc(C)cc3)C(=O)N(C)CC(=O)N[C@@H](CCc3cc(F)c(C(F)(F)F)c(F)c3)C(=O)N2C1 [PP2227]	GDP-bound KRAS wild-type protein (Homo sapiens, UniProt P01116)	9.57
CCO[C@@H]1C[C@H]2C(=O)NC3(CCC3)C(=O)N(C)[C@@H](C(CC)CC)C(=O)N(C)[C@H](C(=O)N(C)C)CC(=O)N(C)[C@@H](CC)C(=O)N[C@@H]([C@@H](C)CC)C(=O)N(C)CC(=O)N(C)[C@H]3C/C=C\CCN(C3=O)[C@@H](Cc3ccc(C(F)(F)F)cc3)C(=O)N(C)CC(=O)N[C@@H](CCc3ccc(Cl)c(Cl)c3)C(=O)N2C1 [PP1215]	GDP-bound KRAS wild-type protein (Homo sapiens, UniProt P01116)	9.38
CC[C@H](C)[C@@H]1NC(=O)[C@H](CC)N(C)C(=O)C[C@@H](C(=O)N(C)C)N(C)C(=O)[C@H](C2CCCC2)N(C)C(=O)C2(CCC2)NC(=O)[C@@H]2CCN2C(=O)[C@H](CCc2cc(F)c(C(F)(F)F)c(F)c2)NC(=O)CN(C)C(=O)[C@H](Cc2ccc(C(F)(F)F)cc2)N2CCCCC[C@@H](C2=O)N(C)C(=O)CN(C)C1=O [PP0654]	GDP-bound KRAS wild-type protein (Homo sapiens, UniProt P01116)	8.70

----------
Tested on: human lung cancer strain NCI-H441
Type: cell-based
pIC50: −log10 of the molar value. Where a SMILES comes first, the peptide text is derived from it. Bridges are numbered along the chain shown (N, C = ends). [ ]: non-standard residue; d: D form. The star is where a group is joined. hPhe(3-Cl-4-CF3) = N[C@@H](CCc1ccc(C(F)(F)F)c(Cl)c1)C(=O)O; NPrPhe(4-CF3) = CCCN[C@@H](Cc1ccc(C(F)(F)F)cc1)C(=O)O; NMeGly(cPent) = CN[C@H](C(=O)O)C1CCCC1; Pro(4,4-F2) = O=C(O)[C@@H]1CC(F)(F)CN1; NMeD = CN[C@@H](CC(=O)O)C(=O)O; NMeL = CN[C@@H](CC(C)C)C(=O)O; Morpholide = C1CN(*)CCO1; Ac5c = NC1(C(=O)O)CCCC1; NEtG = CCNCC(=O)O; Sar = CNCC(=O)O

compound	pIC50
CCCN1C(=O)CN(C)C(=O)CN(CC)C(=O)[C@H]([C@@H](C)CC)NC(=O)[C@H](CC(C)C)N(C)C(=O)C[C@@H](C(=O)N2CCOCC2)N(C)C(=O)[C@H](C2CCCC2)N(C)C(=O)C2(CCCC2)NC(=O)[C@@H]2CC(F)(F)CN2C(=O)[C@H](CCc2ccc(C(F)(F)F)c(Cl)c2)NC(=O)CN(C)C(=O)[C@@H]1Cc1ccc(C(F)(F)F)cc1 [PP0399] ([NMeL]I[NEtG][Sar][NPrPhe(4-CF3)][Sar][hPhe(3-Cl-4-CF3)][Pro(4,4-F2)][Ac5c][NMeGly(cPent)][NMeD]-Morpholide; lactam N-11)	8.20
CCC[C@H]1C(=O)N[C@@H]([C@@H](C)CC)C(=O)N(C)CC(=O)N(C)[C@H]2C/C=C\CCN(C2=O)[C@@H](Cc2ccc(C(F)(F)F)cc2)C(=O)N(C)CC(=O)N[C@@H](CCc2cc(F)c(C(F)(F)F)c(F)c2)C(=O)N2C[C@H](OCC)C[C@H]2C(=O)NC2(CCC2)C(=O)N(C)[C@@H](C2CCCC2)C(=O)N(C)[C@H](C(=O)N(C)C)CC(=O)N1C [PP1110]	7.95
CCCN1C(=O)CN(C)C(=O)[C@@H]2CCCN2C(=O)[C@H]([C@@H](C)CC)NC(=O)[C@H](CC(C)C)N(C)C(=O)C[C@@H](C(=O)N2CCOCC2)N(C)C(=O)[C@H](C2CCCC2)N(C)C(=O)C2(CCCC2)NC(=O)[C@@H]2CCCN2C(=O)[C@H](CCc2ccc(C(F)(F)F)c(Cl)c2)NC(=O)CN(C)C(=O)[C@@H]1Cc1ccc(C(F)(F)F)cc1 [PP0165] ([NMeL]IP[Sar][NPrPhe(4-CF3)][Sar][hPhe(3-Cl-4-CF3)]P[Ac5c][NMeGly(cPent)][NMeD]-Morpholide; lactam N-11)	7.46
